FYI, the data here is from patent US7704995B2.

measuredOn: Chk1 (Homo sapiens)
Construct: purchased Upstate Biotechnology
Sequence (O14757 1-476): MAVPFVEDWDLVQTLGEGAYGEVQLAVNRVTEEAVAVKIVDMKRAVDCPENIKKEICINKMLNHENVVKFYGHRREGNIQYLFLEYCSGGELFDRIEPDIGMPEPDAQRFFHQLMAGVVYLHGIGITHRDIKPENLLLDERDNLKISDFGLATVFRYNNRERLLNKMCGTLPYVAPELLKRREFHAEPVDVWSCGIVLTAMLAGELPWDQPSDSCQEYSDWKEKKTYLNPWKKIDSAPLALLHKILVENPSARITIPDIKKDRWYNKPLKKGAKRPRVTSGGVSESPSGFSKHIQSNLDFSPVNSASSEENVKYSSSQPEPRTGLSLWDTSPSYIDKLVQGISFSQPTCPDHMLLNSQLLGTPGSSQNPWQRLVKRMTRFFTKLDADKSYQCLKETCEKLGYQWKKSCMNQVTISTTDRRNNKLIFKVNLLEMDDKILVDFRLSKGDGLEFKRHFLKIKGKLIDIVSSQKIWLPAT
experimentNotes: Chk1 kinase assay: incorporation of γ-33P ATP into immobilized myelin basic protein
Assay type: biochemical
reportedConditions: read-out: Chk1 IC50
Would you mind telling me the reported IC50 of each entry?

- molecule: "CNC(=O)c1nc(-c2cccc(NC(=O)C3CCCC3)c2)cnc1N [Example 166]"
  IC50: "50 to 1000 nM"
- molecule: "CNC(=O)c1nc(-c2cccc(CNC(=O)Cc3ccccc3)c2)cnc1N [Example 330]"
  IC50: "50 to 1000 nM"

Okay, here is my list. What is IC50 for each of these?
1. CNC(=O)c1nc(-c2cccc(C(=O)NCc3ccc(Cl)cc3Cl)c2)cnc1N [Example 100]
2. CCc1ccc(CNC(=O)c2cccc(-c3cnc(N)c(C(=O)NC)n3)c2)cc1 [Example 413]
3. CNC(=O)c1nc(-c2cccc(C(=O)NCC3CCNCC3)c2)cnc1N [Example 135]
4. CNC(=O)c1nc(-c2cccc(CNCc3cc(F)ccc3F)c2)cnc1N [Example 388]
5. CNC(=O)c1nc(-c2cccc(C(=O)NC3CCCCC3)c2)cnc1N [Example 133]
6. CNC(=O)c1nc(-c2cccc(C(=O)NCC3CCN(C(=O)OC(C)(C)C)CC3)c2)cnc1N [Example 134]
7. CNC(=O)c1nc(-c2cccc(C(=O)NC(C)(C)C)c2)cnc1N [Example 139]

**Result**
["50 to 1000 nM", "50 to 1000 nM", "50 to 1000 nM", "50 to 1000 nM", "1000 to 10000 nM", "50 to 1000 nM", "1000 to 10000 nM"]

###

Would you mind telling me the reported IC50 of each entry?
measuredOn: Chk1 (Homo sapiens, UniProt O14757)
Construct: purchased Upstate Biotechnology
experimentNotes: Chk1 kinase assay: incorporation of γ-33P ATP into immobilized myelin basic protein
Assay type: biochemical
reportedConditions: read-out: Chk1 IC50

Sample answers from the record:
- molecule: "CNC(=O)c1nc(-c2cccc(C(=O)NCc3c(F)cccc3Cl)c2)cnc1N"
  measuredOn: "Chk1 (Homo sapiens, UniProt O14757)"
  result: "50 to 1000 nM"
- molecule: "CNC(=O)c1nc(-c2cccc(C(=O)NCCc3cc(OC)cc(OC)c3)c2)cnc1N"
  measuredOn: "Chk1 (Homo sapiens, UniProt O14757)"
  result: "1000 to 10000 nM"
- molecule: "CNC(=O)c1nc(-c2cccc(C(=O)NCc3ccc(C)c(Cl)c3)c2)cnc1N"
  measuredOn: "Chk1 (Homo sapiens, UniProt O14757)"
  result: "50 to 1000 nM"
- molecule: "CCOc1ccccc1CNC(=O)c1cccc(-c2cnc(N)c(C(=O)NC)n2)c1"
  measuredOn: "Chk1 (Homo sapiens, UniProt O14757)"
  result: "50 to 1000 nM"
- molecule: "CNC(=O)c1nc(-c2cccc(C(=O)NCC(C)c3ccccc3)c2)cnc1N (centres unmarked)"
  measuredOn: "Chk1 (Homo sapiens, UniProt O14757)"
  result: "50 to 1000 nM"

Okay, here is my list. What is IC50 for each of these?
1. CNC(=O)c1nc(-c2cccc(CN3Cc4ccccc4C3)c2)cnc1N
2. CNC(=O)c1nc(-c2cccc(C(=O)NC(C)c3ccc(F)cc3)c2)cnc1N (centres unmarked)
3. CNC(=O)c1nc(-c2cccc(NC(=O)OCC3c4ccccc4-c4ccccc43)c2)cnc1N
4. CNC(=O)c1nc(-c2cccc(NC(=O)Cc3ccc4c(c3)OCO4)c2)cnc1N
5. CNC(=O)c1nc(-c2ccc(NC(C)=O)cc2)cnc1N

**Result**
1. 50 to 1000 nM
2. 1000 to 10000 nM
3. 1000 to 10000 nM
4. 50 to 1000 nM
5. 1000 to 10000 nM
